Target: MMP-9 (h) (Homo sapiens)
Sequence (P14780 94-707): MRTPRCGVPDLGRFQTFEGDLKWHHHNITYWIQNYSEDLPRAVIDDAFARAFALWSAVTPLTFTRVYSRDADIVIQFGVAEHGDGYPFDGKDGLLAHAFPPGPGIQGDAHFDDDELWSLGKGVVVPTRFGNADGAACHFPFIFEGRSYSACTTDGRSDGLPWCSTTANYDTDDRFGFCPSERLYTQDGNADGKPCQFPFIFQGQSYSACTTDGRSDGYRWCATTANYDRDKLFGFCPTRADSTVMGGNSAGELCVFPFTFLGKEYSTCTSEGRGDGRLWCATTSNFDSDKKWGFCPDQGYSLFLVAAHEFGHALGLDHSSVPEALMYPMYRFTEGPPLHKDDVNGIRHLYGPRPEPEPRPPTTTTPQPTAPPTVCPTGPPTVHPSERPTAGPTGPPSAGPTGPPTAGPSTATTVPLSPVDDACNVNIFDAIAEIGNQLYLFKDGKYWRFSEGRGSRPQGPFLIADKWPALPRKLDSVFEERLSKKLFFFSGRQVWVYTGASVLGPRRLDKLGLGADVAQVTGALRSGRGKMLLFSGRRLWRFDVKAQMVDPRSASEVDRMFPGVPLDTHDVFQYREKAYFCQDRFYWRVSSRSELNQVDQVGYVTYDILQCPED
Assay: MMP-9 (h)
Conditions: read-out: Inhibition MMP-9 (h)
experimental-readout: inhibition at 10 µM (%)
Give just the number in %; leave the unit off.

query: I'd like to know its inhibition at 10 µM. The compound in question is O=C(N1CC2(CC(CC3=C4C=CC=[N+]4[B-](F)(F)n4cccc43)C2)C1)N1CC2(CC(n3cnc(C4CC4)n3)C2)C1
result: 16.8

query: I'd like to know its inhibition at 10 µM. The compound in question is O=C1CO[C@H]2CCN(C(=O)N3CC4(CC(CC5=C6C=CC(c7ccc[nH]7)=[N+]6[B-](F)(F)n6cccc65)C4)C3)C[C@H]2N1
result: 47

query: I'd like to know its inhibition at 10 µM. The compound in question is O=C(OC(C(F)(F)F)C(F)(F)F)N1CC2(CC(CC3=C4C=CC(c5ccc[nH]5)=[N+]4[B-](F)(F)n4cccc43)C2)C1
result: 9.7

query: I'd like to know its inhibition at 10 µM. The compound in question is O=C(OC(C(F)(F)F)C(F)(F)F)N1CC2(CC(CC3=C4C=CC=[N+]4[B-](F)(F)n4cccc43)C2)C1
result: 4.5

* * *

Record form. Attribute: inhibition at 10 µM. Fill in for each entry.
Target: H1 (h) (Homo sapiens, UniProt P35367)
Sequence (P35367 whole entry): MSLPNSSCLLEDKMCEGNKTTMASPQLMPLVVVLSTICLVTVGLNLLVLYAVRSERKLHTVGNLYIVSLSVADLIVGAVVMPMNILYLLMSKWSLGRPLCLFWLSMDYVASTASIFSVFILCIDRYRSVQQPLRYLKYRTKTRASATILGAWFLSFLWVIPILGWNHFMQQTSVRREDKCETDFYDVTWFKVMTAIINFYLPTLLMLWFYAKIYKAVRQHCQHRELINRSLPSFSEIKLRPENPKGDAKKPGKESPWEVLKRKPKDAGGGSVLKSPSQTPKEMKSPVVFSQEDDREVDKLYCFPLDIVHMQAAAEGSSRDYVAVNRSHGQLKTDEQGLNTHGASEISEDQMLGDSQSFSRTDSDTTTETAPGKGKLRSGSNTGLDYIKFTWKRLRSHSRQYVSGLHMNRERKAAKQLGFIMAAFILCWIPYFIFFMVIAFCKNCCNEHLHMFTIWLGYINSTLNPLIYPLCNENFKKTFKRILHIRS
Experiment: H1 (h) (antagonist radioligand)
Settings: read-out: Inhibition H1 (h) (antagonist radioligand)
Give just the number in %; leave the unit off.

query: I'd like to know its inhibition at 10 µM. The compound in question is O=C1CO[C@H]2CCN(C(=O)N3CC4(CC(CC5=C6C=CC(c7ccc[nH]7)=[N+]6[B-](F)(F)n6cccc65)C4)C3)C[C@H]2N1
result: 1.3

query: I'd like to know its inhibition at 10 µM. The compound in question is O=C(N1CC2(CC(CC3=C4C=CC=[N+]4[B-](F)(F)n4cccc43)C2)C1)N1CC2(CC(n3cnc(C4CC4)n3)C2)C1
result: 51.5

query: I'd like to know its inhibition at 10 µM. The compound in question is O=C(OC(C(F)(F)F)C(F)(F)F)N1CC2(CC(CC3=C4C=CC(c5ccc[nH]5)=[N+]4[B-](F)(F)n4cccc43)C2)C1
result: 4.4

query: I'd like to know its inhibition at 10 µM. The compound in question is O=C(O[C@H](CO)C(F)(F)F)N1CC2(CC(CC3=C4C=CC=[N+]4[B-](F)(F)n4cccc43)C2)C1
result: 30.4

query: I'd like to know its inhibition at 10 µM. The compound in question is O=C(OC(C(F)(F)F)C(F)(F)F)N1CC2(CC(CC3=C4C=CC=[N+]4[B-](F)(F)n4cccc43)C2)C1
result: 5.5

* * *

Molecular target: NanoLuc luciferase MAGL fusion protein
Sequence (Q99685 whole entry, the tested form may be a part): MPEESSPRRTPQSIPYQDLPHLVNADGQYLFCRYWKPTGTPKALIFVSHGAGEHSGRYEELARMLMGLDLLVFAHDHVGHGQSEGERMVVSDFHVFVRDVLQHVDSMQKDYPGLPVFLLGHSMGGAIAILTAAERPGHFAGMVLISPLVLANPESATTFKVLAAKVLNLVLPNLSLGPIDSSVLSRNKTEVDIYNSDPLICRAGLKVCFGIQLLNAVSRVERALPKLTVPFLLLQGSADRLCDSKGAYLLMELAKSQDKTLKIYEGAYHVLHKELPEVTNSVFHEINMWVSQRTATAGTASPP
Experiment: Cellular MAGL NanoBRET target engagement assay in live HEK293 cells
Conditions: SI Table 1, live HEK293 cells; read-out: NanoBRET IC50 ± SEM, HEK293
Record form. Attribute: IC50. Fill in for each entry.
Give just the number in nM; leave the unit off.

query: I'd like to know its IC50. The compound in question is NC(=O)[C@H]1CCN(C(=O)N2CC3(CC(CC4=C5C=CC=[N+]5[B-](F)(F)n5cccc54)C3)C2)C1
result: 1940

query: I'd like to know its IC50. The compound in question is O=C1NC2(CO1)CN(C(=O)N1CC3(CCC(=CC4=C5C=CC=[N+]5[B-](F)(F)n5cccc54)CC3)C1)C2
result: 574

query: I'd like to know its IC50. The compound in question is O=C1N[C@H](CCC(=O)N2CC3(CC(CC4=C5C=CC=[N+]5[B-](F)(F)n5cccc54)C3)C2)CO1
result: 300
